The reported measurements were obtained from ChEMBL document CHEMBL1153411.

- assay-text: Safety index, ratio of EC50 for human epithelial cells to MIC99 for Candida albicans
- Assay type: toxicity, cell-based, Epithelial cell
Listing of entries alongside the reported selectivity ratio.
// response body must contain only the number

// known answers, use as guide
CCCCCCCCCCCCCCCCCCCCCC(=O)NC(CCC(=O)O)(CCC(=O)O)CCC(=O)O: 32
CCCCCCCCCCCCCCCCNC(=O)NC(CCC(=O)O)(CCC(=O)O)CCC(=O)O: 7

// switching to the query molecule
-- ask Using the record for "CCCCCCCCCCCCCCCCCCCC(=O)NC(CCC(=O)O)(CCC(=O)O)CCC(=O)O" , report its selectivity ratio.
-- reply 21
